Every entry's value here was drawn from PubChem BioAssay (NCI).

- System: SK-MEL-5 melanoma
- method.notes: NCI-60 one-dose screen, 48 h (100 = growth as untreated, 0 = no growth, -100 = all killed)
- condition.details: 10 µM unless noted
Compounds without any hit were thinned out: in the full panel of roughly 83,000, 20% have a hit.
parameter.measured: growth (%)

INSERT INTO results (compound, parameter_measured, units_text, readout_value) VALUES
  ('CCCCCCCC(=O)OCC/C=C/C1OC1C1OC(=O)/C=C\C=C\c2nc(oc2C)/C=C(/C)CCC2OC2C1OC(=O)NC(C)=O (stereo unspecified)', 'growth', '%', -93.8),
  ('COP(=S)(OC)Oc1ccc(SC)c(C)c1', 'growth', '%', 98.9),
  ('C1CN1c1nc(N2CC2)nc(N2CC2)n1', 'growth', '%', 20.1),
  ('Cc1ccc(C(=O)C2CN(C)CCC2(O)c2ccc(C)cc2)cc1 (stereo unspecified)', 'growth', '%', 114),
  ('NC(Cc1ccc(O)cc1)C(=O)N/N=C/c1ccc(N(CCCl)CCCl)cc1 (stereo unspecified)', 'growth', '%', 88.9),
  ('Oc1ccccc1OB(Oc1ccccc1O)N(CCCl)CCCl', 'growth', '%', 89.9),
  ('O=C1c2ccccc2C(=O)N1[N+](=O)[O-]', 'growth', '%', 104),
  ('O=C(Nc1ccc(S(=O)(=O)F)cc1)Oc1ccccc1', 'growth', '%', 96.3),
  ('O=C(NCCNC(=O)c1ccc([As](O)O)cc1)c1ccc([As](O)O)cc1', 'growth', '%', 95.6),
  ('C1CNC2CCCC2C1 (stereo unspecified)', 'growth', '%', 96.7),
  ('N#Cc1ncc(/N=C/c2ccc(N(CCCl)CCCl)cc2)s1', 'growth', '%', 88.4),
  ('CCC[CH2][Sn]1([CH2]CCC)[O]C(=O)c2cccc([N+](=O)[O-])c2C(=O)[O]1', 'growth', '%', -89.8),
  ('Cc1cc(C)nc(C)c1.[Cl][Hg][Cl]', 'growth', '%', 106),
  ('CC(=O)Oc1ccc(Cl)cc1', 'growth', '%', 104),
  ('COc1cc(C2CC(=O)Nc3nc(N)[se]c32)cc(OC)c1OC (stereo unspecified)', 'growth', '%', 99),
  ('CC(C)N=C(NC(C)C)N1CC1', 'growth', '%', 113),
  ('O=C1NC(=O)C(O)(C2(O)C(=O)NC(=O)NC2=O)C(=O)N1', 'growth', '%', 86.7),
  ('COC(=O)C(=[N+]=[N-])C(=O)OC', 'growth', '%', 104),
  ('CC(=O)N1N=C(c2ccccc2)CC1c1sc(N(CCCl)CCCl)nc1Cl (stereo unspecified)', 'growth', '%', 99.1),
  ('Cc1cccc(N=C2c3cc([N+](=O)[O-])ccc3-c3c2cc([N+](=O)[O-])cc3[N+](=O)[O-])c1', 'growth', '%', 71),
  ('Nc1ccc(N)c2c1Oc1ccccc1O2', 'growth', '%', 72.6),
  ('O=C1NC2(CCNCC2)Nc2ccccc21', 'growth', '%', 114),
  ('FC(F)=C(F)c1ccccc1', 'growth', '%', 105),
  ('Cc1cc(N(CCCl)CCCl)ccc1C=Nc1ccc2ccccc2c1', 'growth', '%', 74.6),
  ('CCCCOC(=O)c1ccccc1C(=O)O.CCCCOC(=O)c1ccccc1C(=O)O.[Cu+2]', 'growth', '%', 98),
  ('CC(=O)O[C@H]1CCC2C3CCC4=C/C(=N/O)CCC4(C)C3CCC21C (stereo partly specified)', 'growth', '%', 87.4);
